# target.entity: Env of HIV-1 strain 251-18 (HIV-1)
# method: cell-based or functional assay
# Lookup of reported neutralization IC50 keyed by entry
Kindly answer with a numeric value in µg/mL, unit omitted.

Please review the entries below; each comes with its answer.
8ANC3040 (antibody, V domains shown) VH: QIHLVQSGTEVKKPGSSVTVSCKAYGVNTFGLYAVNWVRQAPGQSLEYIGQIWRWKSSASHHFRGRVLISAVDLTGSSPPISSLEIKNLTSDDTAVYFCTTTSTYDQWSGLHHDGVMAFSSWGQGTLISVSA VL: DIQMTQSPSTLSASIGDTVRISCRASQSITGNWVAWYQQRPGKAPRLLIYRGAALLGGVPSRFSGSAAGTDFTLTIGNLQAEDFGTFYCQQYDTYPGTFGQGTKVEVKR = 0.571
γ59κ5 (antibody, V domains shown) VH: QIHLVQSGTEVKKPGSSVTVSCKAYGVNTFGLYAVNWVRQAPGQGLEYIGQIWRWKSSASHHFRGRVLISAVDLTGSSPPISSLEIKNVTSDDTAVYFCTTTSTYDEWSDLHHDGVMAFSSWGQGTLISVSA VL: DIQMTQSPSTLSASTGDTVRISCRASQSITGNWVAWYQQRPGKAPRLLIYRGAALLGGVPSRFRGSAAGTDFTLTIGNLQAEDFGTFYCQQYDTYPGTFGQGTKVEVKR = 6.96
γ23κ11 (antibody, V domains shown) VH: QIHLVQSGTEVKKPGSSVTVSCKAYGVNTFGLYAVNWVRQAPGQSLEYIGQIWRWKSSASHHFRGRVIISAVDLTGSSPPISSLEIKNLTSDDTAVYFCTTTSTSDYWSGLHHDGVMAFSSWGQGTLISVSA VL: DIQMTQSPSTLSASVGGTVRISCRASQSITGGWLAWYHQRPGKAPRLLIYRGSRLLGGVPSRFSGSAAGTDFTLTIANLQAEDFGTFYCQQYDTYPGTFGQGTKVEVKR = 2.49

neutralization IC50 for γ3κ5 (antibody, V domains shown) VH: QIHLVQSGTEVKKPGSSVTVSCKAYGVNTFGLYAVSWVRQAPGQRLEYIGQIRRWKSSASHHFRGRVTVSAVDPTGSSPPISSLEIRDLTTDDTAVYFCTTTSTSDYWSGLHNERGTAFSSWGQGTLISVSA VL: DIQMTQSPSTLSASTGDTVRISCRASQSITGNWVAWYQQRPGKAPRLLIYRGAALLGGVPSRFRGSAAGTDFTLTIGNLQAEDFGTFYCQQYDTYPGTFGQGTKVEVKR is 0.721

Reference source for all entries: patent US20180171001A1
